Attribute: melting point
Where a name gives a salt, the structure may show the parent alone.

Completed entries (count: 8):
1) Cc1cn2cc(-c3cc4ccc(N5C[C@H]6CN(C)C[C@H]6C5)cc4oc3=O)cc2c(C)n1 ... 146 to 150 °C
2) CN1CCCN(c2ccc3cc(-c4cn5ccsc5n4)c(=O)oc3c2)CC1 ... 228 to 231 °C
3) CCN(CC)C1CCN(c2ccc3cc(-c4cc5c(C)nc(C)cn5c4)c(=O)oc3c2)C1 (stereo not drawn) ... 165 to 168 °C
4) C[C@@H]1CN(c2ccc3cc(-c4cn5cc(Cl)ccc5n4)c(=O)oc3c2)C[C@H](C)N1 ... 220 to 225 °C
5) CN1CCC(c2ccc3cc(-c4ccc5nn(C)cc5c4)c(=O)oc3c2)CC1 ... 215 to 218 °C
6) CN1CCN(c2ccc3cc(-c4cc5ccccn5n4)c(=O)oc3c2)CC1 ... 235 to 237 °C
7) Cc1cn2cc(-c3cc4ccc(NC5C[C@H]6CCC[C@@H](C5)N6C)cc4oc3=O)cc2c(C)n1 (stereo partly drawn) ... 235 to 238 °C
8) Cc1ccc2nc(-c3cc4ccc(N5CCN(C)CC5)cc4oc3=O)cn2c1 ... 267 °C (dec.)

Prompt line: Quick one: give measured melting point for CN1CCN(c2ccc3cc(-c4cn(C)c5ccccc45)c(=O)oc3c2)CC1
Response line: 185 to 187 °C

Prompt line: Quick one: give measured melting point for CN1CCCN(c2ccc3cc(-c4cn5cc(Cl)ccc5n4)c(=O)oc3c2)CC1
Response line: 186 to 189 °C

Prompt line: Quick one: give measured melting point for CC(=O)O.Cc1cn2cc(-c3cc4ccc(N5CCN(C)[C@H](C)C5)cc4oc3=O)nc2c(O)n1
Response line: 304 to 306 °C

Prompt line: Quick one: give measured melting point for Cc1cn2cc(-c3cc4ccc(N5CCCNCC5)cc4oc3=O)cc2cn1
Response line: 178 to 181 °C

Prompt line: Quick one: give measured melting point for Cc1cn2cc(-c3cc4ccc(OCCN5CCCCC5)cc4oc3=O)nc2c(C)n1
Response line: 178 to 190 °C

Prompt line: Quick one: give measured melting point for O=c1oc2cc(OC3CCNC3)ccc2cc1-c1cn2cccnc2n1 (stereo in doubt) (as salt: hydrochloride)
Response line: 240 to 250 °C
